target: Alpha-galactosidase A (Homo sapiens); assay: qHTS Assay for Inhibitors and Activators of N370S glucocerebrosidase as a Potential Chaperone Treatment of Gaucher Disease: Alpha-Galactosidase Counterscreen; conditions: purified enzyme, 4-MU-alpha-Gal fluorescence, 20 min; series mostly up to 57.5 µM
Activity calls are given as the source filed them. Calls come from the whole dose curve; as a rule, active = well fitted curve in the direction sought with a large enough effect; inactive = no such curve, though single readings can be large or run the other way.
ASSAY ENDPOINT: outcome

Known outcome results, listed for orientation:
O=[N+]([O-])c1ccc(S(=O)(=O)N2CCN(c3nc(-c4cccs4)nc4ccccc34)CC2)cc1    inactive
O=S(=O)(c1ccc(OC(F)(F)F)cc1)N1CCN(c2nc(-c3ccccc3)nc3ccccc23)CC1    inactive
O=S(=O)(c1ccc(Cl)cc1)N1CCN(c2nc(-c3cccc(Br)c3)nc3ccccc23)CC1    inactive
O=S(=O)(c1ccccc1Br)N1CCN(c2nc(-c3ccccc3)nc3ccccc23)CC1    inactive

--- query ---
Prompt: # assay system Alpha-galactosidase A (Homo sapiens): give outcome of O=S(=O)(c1ccc(F)cc1)N1CCN(c2nc(-c3cccs3)nc3ccccc23)CC1
Response: inactive

Origin of measurements: PubChem BioAssay AID2578
